- targetSystem: D3 (Homo sapiens, UniProt P35462)
- Sequence (P35462 whole entry): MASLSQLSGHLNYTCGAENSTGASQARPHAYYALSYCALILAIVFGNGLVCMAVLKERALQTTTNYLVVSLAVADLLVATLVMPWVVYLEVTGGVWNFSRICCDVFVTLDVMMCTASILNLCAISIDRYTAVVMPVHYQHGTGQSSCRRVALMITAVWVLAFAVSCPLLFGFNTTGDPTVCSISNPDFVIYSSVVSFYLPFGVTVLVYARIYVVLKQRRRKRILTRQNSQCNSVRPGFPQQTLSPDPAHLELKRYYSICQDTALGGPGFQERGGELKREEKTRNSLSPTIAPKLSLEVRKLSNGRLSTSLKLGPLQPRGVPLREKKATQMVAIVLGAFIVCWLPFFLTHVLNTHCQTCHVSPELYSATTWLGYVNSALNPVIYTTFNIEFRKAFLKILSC
recordedMetric: pIC50
By convention, pIC50 is the negative base-10 log of a molar concentration.

Provide the reported pIC50 (system: D3 (Homo sapiens, UniProt P35462)) for C[C@]12C[C@@H](O)[C@@H]3C[C@@]1(O[C@@H]1O[C@H](CO)[C@@H](O)[C@H](O)[C@H]1O)[C@@]3(COC(=O)c1ccccc1)C(=O)O2 [albiflorin, Albiflorin]
5.44

###

- targetSystem: H3 (Homo sapiens, UniProt Q9Y5N1)
- Sequence (Q9Y5N1 whole entry): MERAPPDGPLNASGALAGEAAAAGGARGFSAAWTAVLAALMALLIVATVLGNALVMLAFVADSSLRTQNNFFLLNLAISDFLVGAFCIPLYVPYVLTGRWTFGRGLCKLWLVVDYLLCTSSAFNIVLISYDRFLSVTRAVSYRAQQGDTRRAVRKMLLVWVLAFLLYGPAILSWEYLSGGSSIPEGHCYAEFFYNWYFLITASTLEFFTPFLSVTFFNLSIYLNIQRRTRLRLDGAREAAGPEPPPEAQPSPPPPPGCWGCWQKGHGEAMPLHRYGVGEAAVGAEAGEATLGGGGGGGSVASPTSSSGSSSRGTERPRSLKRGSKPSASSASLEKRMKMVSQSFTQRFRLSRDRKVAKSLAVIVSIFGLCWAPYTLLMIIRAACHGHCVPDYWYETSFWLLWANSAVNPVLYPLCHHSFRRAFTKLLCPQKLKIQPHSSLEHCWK
recordedMetric: IC50

Give IC50 for C[C@]12C[C@@H](O)[C@@H]3C[C@@]1(O[C@@H]1O[C@H](CO)[C@@H](O)[C@H](O)[C@H]1O)[C@@]3(COC(=O)c1ccccc1)C(=O)O2
> 10 µM

###

recordedMetric: IC50

Provide the reported IC50 (system: M1 (Homo sapiens)) for C[C@]12C[C@@H](O)[C@@H]3C[C@@]1(O[C@@H]1O[C@H](CO)[C@@H](O)[C@H](O)[C@H]1O)[C@@]3(COC(=O)c1ccccc1)C(=O)O2 [albiflorin, Albiflorin]
Sequence (P11229 whole entry): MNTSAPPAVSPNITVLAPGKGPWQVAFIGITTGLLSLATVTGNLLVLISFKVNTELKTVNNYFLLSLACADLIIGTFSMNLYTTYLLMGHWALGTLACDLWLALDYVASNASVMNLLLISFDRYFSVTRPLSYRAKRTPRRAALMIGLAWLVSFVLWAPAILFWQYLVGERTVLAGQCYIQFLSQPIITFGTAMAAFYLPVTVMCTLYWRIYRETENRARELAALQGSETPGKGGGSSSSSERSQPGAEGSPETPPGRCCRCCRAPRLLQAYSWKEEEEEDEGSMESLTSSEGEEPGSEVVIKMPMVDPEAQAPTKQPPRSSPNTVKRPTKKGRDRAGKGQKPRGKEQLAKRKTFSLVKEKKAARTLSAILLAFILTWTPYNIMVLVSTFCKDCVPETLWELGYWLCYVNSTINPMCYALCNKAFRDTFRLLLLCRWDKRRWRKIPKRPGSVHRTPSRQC
> 10 µM

###

- targetSystem: D2 (Homo sapiens, UniProt P14416)
- Sequence (P14416 whole entry): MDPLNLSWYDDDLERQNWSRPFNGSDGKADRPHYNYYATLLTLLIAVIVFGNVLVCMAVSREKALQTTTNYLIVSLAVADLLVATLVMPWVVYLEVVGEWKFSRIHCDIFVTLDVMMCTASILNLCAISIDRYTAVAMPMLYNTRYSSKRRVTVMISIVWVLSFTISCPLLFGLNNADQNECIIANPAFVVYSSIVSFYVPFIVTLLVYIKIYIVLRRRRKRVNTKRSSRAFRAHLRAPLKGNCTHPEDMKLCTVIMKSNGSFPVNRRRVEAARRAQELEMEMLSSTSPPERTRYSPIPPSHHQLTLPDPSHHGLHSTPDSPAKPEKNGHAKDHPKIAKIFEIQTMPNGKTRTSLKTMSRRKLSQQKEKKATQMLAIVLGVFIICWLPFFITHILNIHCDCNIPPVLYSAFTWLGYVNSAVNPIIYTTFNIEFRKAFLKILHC
- testDescription: CNS receptor binding, dopamine D2
- conditionSummary: HEK293 cell line, [3H]-spiperone(1), read-out: IC50 values for albiflorin
recordedMetric: IC50

Give IC50 for C[C@]12C[C@@H](O)[C@@H]3C[C@@]1(O[C@@H]1O[C@H](CO)[C@@H](O)[C@H](O)[C@H]1O)[C@@]3(COC(=O)c1ccccc1)C(=O)O2
> 10 µM

###

- targetSystem: 5-HT1A (Homo sapiens, UniProt P08908)
- Sequence (P08908 1-422): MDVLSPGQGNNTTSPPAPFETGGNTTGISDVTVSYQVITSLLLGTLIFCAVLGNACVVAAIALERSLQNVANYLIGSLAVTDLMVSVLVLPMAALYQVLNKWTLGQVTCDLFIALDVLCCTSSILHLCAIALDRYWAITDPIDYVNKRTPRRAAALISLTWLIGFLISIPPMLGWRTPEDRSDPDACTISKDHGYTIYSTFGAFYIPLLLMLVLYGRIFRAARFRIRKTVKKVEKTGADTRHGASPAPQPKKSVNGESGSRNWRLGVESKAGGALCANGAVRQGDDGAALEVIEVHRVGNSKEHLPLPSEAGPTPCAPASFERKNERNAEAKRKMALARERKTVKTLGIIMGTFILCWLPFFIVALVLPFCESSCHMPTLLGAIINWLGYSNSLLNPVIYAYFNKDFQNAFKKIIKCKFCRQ
recordedMetric: IC50 (µM)
Write the answer as a number in µM, unit excluded.

Give IC50 for C[C@]12C[C@@H](O)[C@@H]3C[C@@]1(O[C@@H]1O[C@H](CO)[C@@H](O)[C@H](O)[C@H]1O)[C@@]3(COC(=O)c1ccccc1)C(=O)O2 [albiflorin, Albiflorin]
4

###

pIC50: −log10 of the molar value.
recordedMetric: pIC50

Provide the reported pIC50 (system: A2A (Homo sapiens)) for C[C@]12C[C@@H](O)[C@@H]3C[C@@]1(O[C@@H]1O[C@H](CO)[C@@H](O)[C@H](O)[C@H]1O)[C@@]3(COC(=O)c1ccccc1)C(=O)O2
Sequence (P29274 whole entry): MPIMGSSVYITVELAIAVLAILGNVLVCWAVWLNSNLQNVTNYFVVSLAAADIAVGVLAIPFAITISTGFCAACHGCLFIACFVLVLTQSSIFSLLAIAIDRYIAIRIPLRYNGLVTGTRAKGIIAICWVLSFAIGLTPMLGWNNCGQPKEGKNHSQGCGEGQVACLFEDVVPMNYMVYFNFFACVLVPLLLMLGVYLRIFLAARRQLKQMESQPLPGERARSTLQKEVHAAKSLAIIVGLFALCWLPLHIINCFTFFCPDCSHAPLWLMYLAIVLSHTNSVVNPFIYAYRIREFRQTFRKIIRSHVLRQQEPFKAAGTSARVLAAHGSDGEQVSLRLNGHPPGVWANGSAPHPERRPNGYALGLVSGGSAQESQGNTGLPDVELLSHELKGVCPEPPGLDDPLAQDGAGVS
< 5.00

###

- targetSystem: 5-HT1B (Homo sapiens, UniProt P28222)
- Sequence (P28222 whole entry): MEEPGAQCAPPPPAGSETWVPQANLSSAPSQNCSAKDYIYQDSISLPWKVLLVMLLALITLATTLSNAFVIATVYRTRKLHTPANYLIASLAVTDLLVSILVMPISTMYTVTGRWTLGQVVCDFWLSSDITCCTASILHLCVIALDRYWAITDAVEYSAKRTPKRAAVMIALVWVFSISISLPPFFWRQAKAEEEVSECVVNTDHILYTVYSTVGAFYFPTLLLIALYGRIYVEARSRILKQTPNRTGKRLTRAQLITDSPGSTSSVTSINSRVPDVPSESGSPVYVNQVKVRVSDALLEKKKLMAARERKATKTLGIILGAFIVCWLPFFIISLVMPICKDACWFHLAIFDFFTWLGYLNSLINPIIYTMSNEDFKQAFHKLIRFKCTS
recordedMetric: IC50

Provide the reported IC50 (system: 5-HT1B (Homo sapiens, UniProt P28222)) for C[C@]12C[C@@H](O)[C@@H]3C[C@@]1(O[C@@H]1O[C@H](CO)[C@@H](O)[C@H](O)[C@H]1O)[C@@]3(COC(=O)c1ccccc1)C(=O)O2
> 10 µM
